Cited source: patent US10550084B2

Tested on: HA-tagged HBeAg (HBV) in DESHAe82 cells
Assay: AlphaLisa eAg: HA-HBeAg level in DESHAe82 cell culture (anti-HBV / anti-cccDNA activity)
Format: cell-based
Settings: Hepatitis B virus, 216 h, read-out: AlphaLisa_eAg EC50
Procedure: Evaluation of anti-HBV activity of the compounds in in vitro cell culture studies was conducted using a modification of the assay system described in Cai et al., 2012, Antimicrobial Agents Chemotherapy 56(8):4277-88, and PCT/EP/2015/06838. […] The DESHAe82 cell line produces high levels of cccDNA synthesis and HA-HBeAg, and high specific readout signals with low noise. […]
metric: EC50
Show the value, then the unit it is measured in.

# molecule, meas value
rows = [
    ("COc1ccc(CON=C(C)c2c(C)cc(=O)n(O)c2O)cc1 (mixture of isomers) [Compound 7]", "0.35 µM"),
]

For the 5 molecules below, give their EC50 values.
1. CC(=NOCc1ccc(C)cc1)c1c(C)cc(=O)n(O)c1O (mixture of isomers) [Compound 5]
2. CC(=NOc1ccccc1)c1c(C)cc(=O)n(O)c1O (mixture of isomers) [Compound 2]
3. CC(=NOCc1ccccc1N)c1c(C)cc(=O)n(O)c1O (mixture of isomers) [Compound 8]
4. CC(=NOCc1ccccc1)c1c(C)cc(=O)n(O)c1O (mixture of isomers) [Compound 4]
5. CC(=NOCc1ccc(F)cc1)c1c(C)cc(=O)n(O)c1O (mixture of isomers) [Compound 6]

["1.57 µM", "1.28 µM", "2.25 µM", "2.24 µM", "0.64 µM"]

For the 2 molecules below, give their EC50 values.
1. COc1ccccc1CON=C(C)c1c(C)cc(=O)n(O)c1O (mixture of isomers) [Compound 10]
2. CC(=NOc1ccc(F)cc1)c1c(C)cc(=O)n(O)c1O (mixture of isomers) [Compound 3]

["0.98 µM", "1.18 µM"]
